Endpoint Label: IC50

Lookup: Identify the measured IC50 of CCC[C@@H](CCO)Nc1nc(N)nc2cnn(Cc3ncc(C4CCN(C5CCN(C)CC5)CC4)cc3OC)c12 for Cytochrome P450 2C8 (Homo sapiens, UniProt P10632).
Found: > 20 µM

Lookup: Can you look up IC50 on Cytochrome P450 2C8 (Homo sapiens, UniProt P10632) for CCC[C@@H](CCO)Nc1nc(N)nc2cnn(Cc3ncc(C4CCN(C)CC4)cc3OC)c12 ?
Found: > 20 µM

Lookup: Fill in the recorded IC50 for this compound, with Cytochrome P450 2C8 (Homo sapiens, UniProt P10632) as test system: CCC[C@H](CCO)Nc1nc(N)nc2cnn(Cc3ncc(C4CCN(C5CCOCC5)CC4)cc3OC)c12
Sequence (P10632 whole entry): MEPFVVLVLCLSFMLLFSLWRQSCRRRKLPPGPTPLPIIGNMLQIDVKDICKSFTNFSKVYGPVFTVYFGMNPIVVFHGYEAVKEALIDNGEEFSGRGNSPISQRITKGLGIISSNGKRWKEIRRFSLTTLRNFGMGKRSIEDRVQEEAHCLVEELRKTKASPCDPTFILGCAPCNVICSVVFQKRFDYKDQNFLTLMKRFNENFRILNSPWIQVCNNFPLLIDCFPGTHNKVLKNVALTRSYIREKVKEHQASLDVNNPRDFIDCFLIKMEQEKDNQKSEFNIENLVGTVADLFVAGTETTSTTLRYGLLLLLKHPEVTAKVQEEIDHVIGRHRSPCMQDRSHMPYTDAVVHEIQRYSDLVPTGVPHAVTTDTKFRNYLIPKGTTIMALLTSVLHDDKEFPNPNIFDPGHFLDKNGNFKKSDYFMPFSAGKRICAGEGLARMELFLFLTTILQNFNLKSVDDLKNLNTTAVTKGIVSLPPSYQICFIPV
Found: > 20 µM

Lookup: For Cytochrome P450 2C8 (Homo sapiens, UniProt P10632), provide IC50 of CCCCNc1nc(N)nc2cnn(Cc3ccc(CNC4CCC4)cc3OC)c12 please.
Found: > 20 µM

Lookup: Cytochrome P450 2C8 (Homo sapiens, UniProt P10632) / IC50 / CCCCNc1nc(N)nc2cnn(Cc3ccc(N4CCNCC4)cc3OC)c12 : value?
Found: > 20 µM

Lookup: So what IC50 did CCCCNc1nc(N)nc2c(C3CC3)nn(Cc3ncc(C4CCNCC4)cc3OC)c12 get with Cytochrome P450 2C8 (Homo sapiens, UniProt P10632)?
Found: > 20 µM

###

pIC50: −log10 of the molar value.
Entries with reported pIC50 on Voltage-gated inwardly rectifying potassium channel KCNH2 (Homo sapiens)
Sequence (Q12809 whole entry): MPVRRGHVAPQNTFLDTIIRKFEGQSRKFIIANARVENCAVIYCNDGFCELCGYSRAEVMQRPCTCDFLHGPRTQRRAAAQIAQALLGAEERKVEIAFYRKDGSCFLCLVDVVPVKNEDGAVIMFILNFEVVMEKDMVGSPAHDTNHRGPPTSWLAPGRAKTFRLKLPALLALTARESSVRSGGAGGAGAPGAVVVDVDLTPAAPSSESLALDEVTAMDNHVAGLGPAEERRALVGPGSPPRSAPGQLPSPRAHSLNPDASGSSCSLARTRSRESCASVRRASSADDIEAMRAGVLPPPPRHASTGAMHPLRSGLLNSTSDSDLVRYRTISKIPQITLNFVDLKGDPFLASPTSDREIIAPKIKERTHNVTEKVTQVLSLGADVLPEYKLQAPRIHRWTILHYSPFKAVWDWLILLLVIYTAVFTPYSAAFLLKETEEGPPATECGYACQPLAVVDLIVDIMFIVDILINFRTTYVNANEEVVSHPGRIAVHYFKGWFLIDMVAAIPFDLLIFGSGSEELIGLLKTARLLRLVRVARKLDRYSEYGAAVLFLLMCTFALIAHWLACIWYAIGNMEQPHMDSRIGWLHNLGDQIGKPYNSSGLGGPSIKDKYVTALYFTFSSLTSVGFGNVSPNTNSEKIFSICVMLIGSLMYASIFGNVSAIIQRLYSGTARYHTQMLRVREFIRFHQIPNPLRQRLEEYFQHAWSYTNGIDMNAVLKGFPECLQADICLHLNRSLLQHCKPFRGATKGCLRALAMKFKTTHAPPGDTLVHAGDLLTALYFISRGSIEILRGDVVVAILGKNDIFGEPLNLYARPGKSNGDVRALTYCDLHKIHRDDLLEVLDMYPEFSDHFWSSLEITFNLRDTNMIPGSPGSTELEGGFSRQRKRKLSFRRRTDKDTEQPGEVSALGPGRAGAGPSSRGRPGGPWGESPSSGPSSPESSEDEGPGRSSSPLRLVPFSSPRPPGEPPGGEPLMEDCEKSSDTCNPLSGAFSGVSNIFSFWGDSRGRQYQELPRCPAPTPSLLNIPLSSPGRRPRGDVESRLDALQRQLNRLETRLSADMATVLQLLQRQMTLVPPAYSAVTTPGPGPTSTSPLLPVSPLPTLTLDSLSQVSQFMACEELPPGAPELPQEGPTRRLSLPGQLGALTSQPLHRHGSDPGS

Lookup: What value of pIC50 has been reported for the following molecule? CCC[C@@H](CCO)Nc1nc(N)nc2cnn(Cc3ncc(C4CCN(C5CCN(C)CC5)CC4)cc3OC)c12
Found: < 4.30

Lookup: Which pIC50 value belongs to CCC[C@H](CCO)Nc1nc(N)nc2cnn(Cc3ncc(C4CCN(C5CCOCC5)CC4)cc3OC)c12 ?
Found: < 4.30

Lookup: Please give the measured pIC50 for this molecule: CCCCNc1nc(N)nc2cnn(Cc3ccc(CNC4CCC4)cc3OC)c12
Found: 4.62

Lookup: For the molecule shown here, CCC[C@@H](CCO)Nc1nc(N)nc2cnn(Cc3ncc(C4CCN(C5CCOCC5)CC4)cc3OC)c12 , give the reported pIC50.
Found: < 4.30

Lookup: # pIC50 lookup, item CCC[C@@H](CCO)Nc1nc(N)nc2cnn(Cc3ncc(C4CCN(C5CCNCC5)CC4)cc3OC)c12
Found: 4.49

Lookup: Dear colleague, I am looking for the recorded pIC50 of the following molecule: CCC[C@@H](CCO)Nc1nc(N)nc2cnn(Cc3ncc(C4=CC5(CCN(C6CCOCC6)CC5)C4)cc3OC)c12
Found: < 4.00

Lookup: If you can, please state the reported pIC50 value of CCCCNc1nc(N)nc2c(CC)nn(Cc3ncc(C4CCNCC4)cc3OC)c12 .
Found: < 4.30

###

Tgt: Cytochrome P450 2C9 (Homo sapiens)
Sequence (P11712 whole entry): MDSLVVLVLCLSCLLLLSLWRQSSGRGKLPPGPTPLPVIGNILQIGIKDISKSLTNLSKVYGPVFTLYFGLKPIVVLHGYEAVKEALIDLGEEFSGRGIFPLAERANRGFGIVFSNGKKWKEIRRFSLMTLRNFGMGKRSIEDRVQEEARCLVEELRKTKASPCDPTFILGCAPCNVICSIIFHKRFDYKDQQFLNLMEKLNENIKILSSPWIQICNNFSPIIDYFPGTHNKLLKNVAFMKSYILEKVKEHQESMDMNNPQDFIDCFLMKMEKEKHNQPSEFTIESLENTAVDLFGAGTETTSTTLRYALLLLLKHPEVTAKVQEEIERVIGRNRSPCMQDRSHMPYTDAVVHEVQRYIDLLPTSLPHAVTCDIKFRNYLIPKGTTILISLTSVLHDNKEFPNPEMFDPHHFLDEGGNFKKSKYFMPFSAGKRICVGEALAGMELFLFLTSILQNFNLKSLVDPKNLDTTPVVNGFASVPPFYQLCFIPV
Assay Comment: Inhibition of CYP2C9 (unknown origin)
Format: ADME
Give measured IC50 for each item. Keep answers brief.

Lookup: Given the compound CCCCNc1nc(N)nc2cnn(Cc3ccc(CNC4CCC4)cc3OC)c12 , what is its reported IC50?
Found: > 20 µM

Lookup: Field request: IC50 | item: CCCCNc1nc(N)nc2c(C)nn(Cc3ncc(C4CCNCC4)cc3OC)c12
Found: > 20 µM

Lookup: Please give the measured IC50 for this compound: CCC[C@@H](CCO)Nc1nc(N)nc2cnn(Cc3ncc(C4CCN(C5CCOCC5)CC4)cc3OC)c12
Found: > 20 µM
